test system: Salmonella typhimurium; assay: Antibiofilm activity against Salmonella typhimurium ATCC 14028 after 24 hrs by crystal violet staining based method; type: functional, Salmonella enterica subsp. enterica serovar Typhimurium
Property: MBIC50 (µM)
Numbers only, in µM.

// known answers, use as guide
Fill in: MBIC50 on Salmonella typhimurium, entry CCCCCCc1nc(N)n(CC(=O)Nc2ccccc2)c1-c1ccccc1Br
35.7

Fill in: MBIC50 on Salmonella typhimurium, entry COc1ccc(Cc2nc(N)n(CC(=O)Nc3ccc(C)cc3)c2-c2ccccc2Br)cc1
6.3

Fill in: MBIC50 on Salmonella typhimurium, entry COc1ccc(NC(=O)Cn2c(N)nc(Cc3ccc(C(C)(C)C)cc3)c2-c2ccccc2Br)cc1
231.2

Fill in: MBIC50 on Salmonella typhimurium, entry O=C(OC[C@H]1O[C@@H](OC(=O)c2cc(O)c(O)c(OC(=O)c3cc(O)c(O)c(O)c3)c2)[C@H](OC(=O)c2cc(O)c(O)c(OC(=O)c3cc(O)c(O)c(O)c3)c2)[C@@H](OC(=O)c2cc(O)c(O)c(OC(=O)c3cc(O)c(O)c(O)c3)c2)[C@@H]1OC(=O)c1cc(O)c(O)c(OC(=O)c2cc(O)c(O)c(O)c2)c1)c1cc(O)c(O)c(OC(=O)c2cc(O)c(O)c(O)c2)c1
18.8

Please look at the following compound next.
Fill in: MBIC50 on Salmonella typhimurium, entry Nc1nc(CC2CC2)c(-c2ccccc2Br)n1CC(=O)Nc1ccccc1
107.6

====

test system: Salmonella typhimurium; experiment: Antibiofilm activity against Salmonella typhimurium ATCC 14028 after 24 hrs by crystal violet staining based method; type: functional, Salmonella enterica subsp. enterica serovar Typhimurium
Property: MBIC50

// known answers, use as guide
Fill in: MBIC50 on Salmonella typhimurium, entry Nc1nc(Cc2ccccc2)c(-c2ccccc2Br)n1CC(=O)Nc1ccccc1
>400 µM

Fill in: MBIC50 on Salmonella typhimurium, entry CC(C)(C)c1ccc(Cc2nc(N)n(CC(=O)NCc3ccccc3)c2-c2ccccc2Br)cc1
>400 µM

// each compound listed below needs its MBIC50
1. O=c1cc(-c2ccccc2)oc2cc(O)c(O)c(O)c12
2. CC(C)(C)c1ccc(Cc2nc(N)n(CC(=O)Nc3ccc([N+](=O)[O-])cc3)c2-c2ccccc2Br)cc1
3. CCCCCc1nc(N)n(CC(=O)Nc2ccccc2)c1-c1ccccc1Br

1. >400 µM
2. >400 µM
3. >400 µM

The origin of these recorded values is ChEMBL document CHEMBL4190235.
